For each of the molecules below, state its GI50.
Tested on: HL-60
assay explanation: NCI tumour cell line growth inhibition, 48 h
The source made the active and inactive calls. Rule as the data show it: active = GI50 up to about 1.1 µM and inactive = higher.

// returns reported GI50 for input CNC(=O)CCC(NC(=O)OC(C)(C)C)C(=O)NC(Cc1ccc(NC(=O)CCCCC(C)=O)cc1)C(=O)NCC(=O)NC (centres undefined)
> 100 µM (inactive)

Hey, quick one: what's GI50 for each of these?
1. COc1cc(C=O)cc(/C=N/c2ccc(Br)cc2)c1O
2. COC(=O)c1cc(=O)nc2cc3cccccc3n12
3. COC1CC(OC2CCC3(C)C(=CCC4C3C(OC(C)=O)C(OC(=O)CC(C)C)C3(C)C(C(C)=O)CCC43O)C2)OC(C)C1OC1CC(OC)C(OC2CC(OC)C(OC3OC(C)C(OC4OC(CO)C(O)C(O)C4O)C(OC)C3O)C(C)O2)C(C)O1 (centres undefined)
4. COC(=O)/C=C/c1ccccc1N=[S@](C)(=O)c1ccc(C)cc1
5. Cc1ccc(/C(=C\C(=O)C(=O)NC23CC4CC(CC(C4)C2)C3)Sc2ccccc2)cc1
6. Cc1c2c(n3c(nc4ccccc43)c1C#N)SCC2
7. Cc1cc2c(cc1C)C(=O)C1(C2)Cc2c(C)ccc(C)c2C1=O (centres undefined)
8. CCCCCCCCCC(=O)NC(Cc1ccc(O)cc1)C(=O)NCCCNCCCCNCCCNC(=O)[C@@H](N)CCCN=C(N)N (some centres undefined)

["2.11 µM (inactive)", "> 100 µM (inactive)", "> 75 µM (inactive)", "2.32 µM (inactive)", "5.82 µM (inactive)", "> 10 µM (inactive)", "> 100 µM (inactive)", "16.2 µM (inactive)"]
